# System: OVCAR-4 ovarian
# PROTOCOL SUMMARY: NCI-60 one-dose screen, 48 h (100 = growth as untreated, 0 = no growth, -100 = all killed)
# MEASUREMENT CONTEXT: 10 µM
This is part of a sample that, as a whole, favours compounds with a hit. Of some 83,000 tested, about 20% had one in any assay.
MEASUREMENT KIND: growth (%)
Numeric answer only, unit % assumed.

Example entries begin here.
COMPOUND	MEASUREMENT KIND	ENDPOINT RESULT
CCOC(=O)c1cc(C(=O)c2cc(OC)c(OC)c(OC)c2)n2ncc3ccccc3c12	growth	83.8
COc1ccc2nc3cc(Cl)ccc3c(NCCCNCCO)c2c1	growth	-35.9
CC(=O)/C(=C/c1ccc(Br)cc1)C(=O)c1ccccc1	growth	81.4

Consider the compound Cc1cc(SC#N)cc(C(C)(C)C)c1O and give its recorded growth.
96.1

Complete the entry with growth for CC(C)c1ccc(C(C)C(=O)N(CC2=C(C(C)c3ccccn3)c3ccccc3C2)C(C)C)cc1 (configuration not stated)
30.2

Complete the entry with growth for COc1cc(-c2nn(-c3ccc(NC(=O)NCCNS(=O)(=O)c4ccc(F)cc4)cc3)cc2-c2ccncc2)ccc1Cl
41.8

Answer with the recorded growth of COc1ccc2nc(-c3ccc(Cl)cc3)cc(-c3nnc(SC/C(=N\O)c4ccccc4)n3-c3ccccc3)c2c1 only.
84.5

Identify measured growth associated with COc1cc2c(Nc3ccc(-c4ccc(N)cc4)cc3)ncnc2c(OC)c1OC
51.4

Write down growth measured for item Cc1ccc(/C=C/C(=O)C(=O)/C=C/c2ccc(C)cc2)cc1
98.6

Given the compound CN1CCN(CC(=O)Nc2cccc(-n3cc(-c4ccncc4)c(-c4ccc(Cl)c(O)c4)n3)c2)CC1 , write its reported growth.
59.8

Note down growth recorded for O=C(O)c1cn(C2CC2)c2cc(N3CCN(C(=O)c4cc(-c5ccc(Cl)cc5)nc5ccccc45)CC3)c(F)cc2c1=O
98.6

Give a short answer stating reported growth for Cc1c2c[n+](C(C)C)ccc2c(C)c2c1[nH]c1ccccc12 .
13.8

Answer with reported growth of COc1cc2ncnc(NC3CCC(O)CC3)c2cc1OC (configuration not stated)
103

Item C[N+]1(CCCCC[N+]2(C)CCCC2)CCCC1 : provide growth
97.4

Identify measured growth corresponding to COc1ccc2cc(-c3nc4ccccc4s3)c(Cl)nc2c1OC
94.6

Provide growth value for the following compound: Nc1nccc(OCCO)n1
109

Specify growth for NS(=O)(=O)Oc1ccc(NC(=O)C2CCCCCC2)cc1 and stop.
107

Give a short answer stating reported growth for O=C(CCNC(=O)c1nc(-c2ccccc2)n(-c2ccc(Cl)cc2)n1)NO .
106

Query growth for COc1ccc(/C(C#N)=C/c2ccccc2OC)cc1
89.9

Give recorded growth. COc1ccc(-c2cc(-c3ccc(Cl)cc3)nc(SCCCCCCC(=O)NO)n2)cc1OC
70.5

Report measured growth; entry is Cc1ccc(-n2nnnc2N)c(C)c1
99

Dear colleague, please send me the reported growth for CCOC(=O)C1=CSC2=NC3=C(CCC/C3=C\c3ccc(Cl)cc3)C(c3ccc(Cl)cc3)N12 (configuration not stated) when you can.
94.7

---

# System: SK-MEL-5 melanoma
# PROTOCOL SUMMARY: NCI-60 one-dose screen, 48 h (100 = growth as untreated, 0 = no growth, -100 = all killed)
# MEASUREMENT CONTEXT: 10 µM
Compounds without any hit were thinned out: in the full panel of roughly 83,000, 20% have a hit.
MEASUREMENT KIND: growth (%)
Record the value in %, omitting the unit from your answer.

Completed entries (count: 5):
CC1=NN(C(=O)c2nn(-c3ccc(Cl)cc3)cc2O)C(=O)C1 64.9
CC(=O)N[C@H](C(=O)N[C@@H](CCCNC(=N)N)C(=O)N[C@@H](CCCCN)C(=O)N[C@@H](CCCNC(=N)N)C(=O)N[C@]1(C)CCC/C=C\CCC[C@@](C)(C(=O)N[C@@H](CC(C)C)C(=O)N[C@@H](CC(C)C)C(=O)N[C@@H](CCC(N)=O)C(=O)N[C@@H](CCC(=O)O)C(=O)N[C@@H](CCCNC(=N)N)C(=O)N[C@@H](CCC(=O)O)C(=O)N[C@@H](CC(C)C)C(=O)N[C@H](C(=O)N[C@@H](CCC(=O)O)C(N)=O)C(C)C)NC(=O)[C@H](CCCNC(=N)N)NC(=O)[C@H](CC(C)C)NC1=O)C(C)C 102
COc1ccc(-c2cc(-c3ccc(Cl)cc3)nc(SCCCC(=O)NO)n2)cc1OC -55.9
S=c1cnc2ccccc2[nH]1 97.6
O=C(Nc1ccc(NS(=O)(=O)c2ccc(F)cc2)cc1)C12CC3CC(CC(C3)C1)C2 93.9

Consider now this further molecule.
Give growth; test system SK-MEL-5 melanoma; molecule CCN(CC)CCOc1ccc2c(c1O)C(=O)c1ccccc1C2=O
81.2
